// emission maximum lookup, one value per entry
test: solvent given as SMILES; conditions: in ClC(Cl)Cl
Note: unit nm is implicit; provide only the numeric part.

Below: 5 compounds and their reported emission maximum.
COc1ccc(O)cc1C=O ... 433
COc1ccc(C2=C3C=CC(C)=[N+]3[B-](F)(F)n3c(C)ccc32)cc1 ... 523
Cc1ccc(/C=N/c2cc(C(C)C)c(O)cc2C)cc1 ... 415
c1ccc(-n2c(-c3ccc(-c4ccc5c(c4)C4(c6ccccc6-c6ccccc64)c4cc(-c6ccc(-c7nc8ccccc8n7-c7ccccc7)cc6)c6ccccc6c4-5)cc3)nc3ccccc32)cc1 ... 440
CN(C)c1ccc(C2=Cc3ccc4ccccc4[n+]3[B-](F)(F)O2)cc1 ... 521

For the compound CCCCCCCCCCCCOc1cc2c3c(ccc4c5c(N6CCOCC6)cc6c7c(ccc(c1c34)c75)C(=O)N(C1CCCCC1)C6=O)C(=O)N(C1CCCCC1)C2=O , give its reported emission maximum.
697

Given the compound CCC1=C(C)C2=C(C)c3c(C)c(-c4csc(N5CCOCC5)n4)c(C)n3[B-](F)(F)[N+]2=C1C , write its reported emission maximum.
603

Tell me emission maximum reported for O=C1Cc2cc3c(cc2CCCc2ccc(cc2)CCC3)CC(=O)Cc2ccc(c3nsnc23)C1
522

Look up and report measured emission maximum for this entry: C(#Cc1ccccc1)C(C#Cc1ccccc1)=Cc1ccc(C=C(C#Cc2ccccc2)C#Cc2ccccc2)cc1
475

---

Recorded emission maximum for the following compounds
experiment: solvent given as SMILES; conditions: in Cc1ccccc1
Provide only the numeric value, understood in nm.

C1=[N+](c2ccccc2)[B-](c2ccccc2)(c2ccccc2)Oc2c1ccc1c3c(ccc21)C=[N+](c1ccccc1)[B-](c1ccccc1)(c1ccccc1)O3 ... 602

Give emission maximum for the following compound: CCCCCCCCC1(CCCCCCCC)c2cc(C#CC#Cc3ccc(N(c4ccccc4)c4ccccc4)cc3)ccc2-c2ccc(C=O)cc21
442

Please list emission maximum recorded for the compound c1ccc(-n2c(-c3ccc(-c4ccc(-c5ccc(-c6nc7c8ccccc8c8ccccc8c7n6-c6ccccc6)cc5)cc4)cc3)nc3ccccc32)cc1
413

---

test: solvent given as SMILES; settings: in ClCCl
endpoint: emission maximum (nm)
Lab book: enter the figure in nm, no units written.

Answered examples (3):
C=CC1CN2CCC1CC2[C@@H](OCc1ccccc1)c1ccnc2ccc(O)cc12 (some centres undefined) ... 363
N#Cc1c(-n2c3ccccc3c3ccccc32)c(-n2c3ccccc3c3ccccc32)c(-n2c3ccccc3c3ccccc32)c(-n2c3ccccc3c3ccccc32)c1-n1c2ccccc2c2ccccc21 ... 497.22
O=C(/C=C/c1cn(-c2ccccc2)nc1-c1ccccc1)c1c(O)c2ccccc2oc1=O ... 502

// below: emission maximum requested for another compound
State its emission maximum: CCOC(=O)/N=c1/oc2cc(N(CC)CC)ccc2cc1C#N
486

---

assay: solvent given as SMILES; details: in Cc1ccccc1
endpoint: emission maximum (nm)
Respond numerically; units are nm and should not be typed.

Use the examples below as a reference point.
CC(C)(C)c1cc2c(c(C(C)(C)C)c1)O[B-](F)(F)[n+]1c-2nc(-c2ccccc2)c2cc(Cl)ccc21 ... 552
COC(=O)/C(C#N)=c1\s/c(=c2/s/c(=C(/C#N)C(=O)OC)c3cc(-c4ccccc4)sc23)c2sc(-c3ccccc3)cc12 ... 640
F[B-]1(F)n2cccc2C(c2c3ccccc3c(-c3ccccc3)c3ccccc23)=C2C=CC=[N+]21 ... 529
c1ccc(-c2nc(-c3ccccc3)nc(-n3c4ccccc4c4cccc(-n5c6ccccc6c6ccccc65)c43)n2)cc1 ... 459.26
O=S(=O)(c1ccc(N2c3ccccc3Oc3ccccc32)cc1)c1ccc(N2c3ccccc3Oc3ccccc32)cc1 ... 507
O=C1c2ccccc2-c2ccc(N3CCN(c4ccccc4)CC3)c3cccc1c23 ... 562
COC(=O)C(Cc1ccc2oc(-c3ccc(N(C)C)cc3)nc2c1)NC(=O)OC(C)(C)C (stereo not drawn) ... 374.5

Supply emission maximum value. Item: O=S(=O)(c1cccc(N2c3ccccc3Sc3ccccc32)c1)c1cccc(N2c3ccccc3Sc3ccccc32)c1
561

---

test: solvent given as SMILES; conditions: in ClCCl
endpoint: emission maximum (nm)
Record the value in nm, omitting the unit from your answer.

CCCCn1c2ccccc2c2ccc(C#Cc3ccc4ccc5cccc6ccc3c4c56)cc21 ... 411

// Input: COc1ccc2c(c1)sc1[n+]2[B-](F)(F)OC(c2ccc(N(C)C)cc2)=N1 . Output its emission maximum only.
467

Answer with reported emission maximum of O=c1oc2ccccc2c2c1c(=O)oc1cc(O)ccc12
455

Could you please provide reported emission maximum for C1=[N+](c2ccccc2)[B-](c2ccccc2)(c2ccccc2)Oc2c1ccc1c3c(ccc21)C=[N+](c1ccccc1)[B-](c1ccccc1)(c1ccccc1)O3 ? Thanks!
594

---

experiment: solvent given as SMILES; conditions: in C1CCOC1
Please note: emission maximum exactly at 400 nm is rule not met. Only values below 400 nm get rule met.

Answered cases to consult:
c1ccc(-n2c(-c3ccc(-c4ccc(-c5ccc(-c6nc7c8ccccc8c8ccccc8c7n6-c6ccccc6)cc5)cc4)cc3)nc3ccccc32)cc1 ... rule not met
CC(C)(C)NC1=CC2=c3cc(NC(C)(C)C)c4nc(C(F)(F)C(F)(F)C(F)(F)F)nc5c(NC(C)(C)C)cc(c3c54)C3=CC(NC(C)(C)C)=C4N=C(C(F)(F)C(F)(F)C(F)(F)F)N=C1C4C32 (stereo not drawn) ... rule not met
CCCCCCCCCCCCn1c(-c2cc(-c3nc4ccccc4n3CCCCCCCCCCCC)cc(-c3nc4ccccc4n3CCCCCCCCCCCC)c2)nc2ccccc21 ... rule met
CCCCOc1cc2ccccc2c2c1oc1cc3ccccc3cc12 ... rule met
CC(C)(C)c1ccc(-c2nc3c4ccc(-c5cccc6ccccc56)cc4c4cc(-c5cccc6ccccc56)ccc4c3n2-c2ccc(C(C)(C)C)cc2)cc1 ... rule met

Hello, I'm reviewing records and need to know if emission maximum of COC(=O)c1c2ccccc2nc2ccccc12 is below 400 nm. Could you check?
rule not met

Does the reported emission maximum of CCC(CC)COC1=CC2=C3c4cc(OCC(CC)CC)c(-c5cccs5)n4[B-](F)(F)[n+]4c3n(c3cc(C(C)(C)C)ccc34)[B-](F)(F)[N+]2=C1c1cccs1 stay below 400 nm?
rule not met

Does the reported emission maximum of the following compound sit strictly below 400 nm? COC(=O)CN1C(=O)c2cc3ccc(N(C)C)cc3cc2C1=O
rule not met

Could you please tell me whether emission maximum recorded for COc1ccc(C2=CC(c3ccc4cc(N(C)C)ccc4c3)=[O+][B-](F)(F)O2)cc1 is less than 400 nm?
rule not met

---

experiment: solvent given as SMILES; conditions: in CC1CCCO1
endpoint: emission maximum (nm)
Give the number; nm is assumed, so skip it.

Known results for molecules:
CCCCCCOc1ccc2ccc3oc(=O)cc4cc(OCCCCCC)c1c2c43 ... 490
O=c1cc2c(Br)c(O)c3cccc4ccc(o1)c2c43 ... 484
CC1=CC(C)=[N+]2C1=C(c1ccc(C)cc1)c1c(C)cc(/C=C/c3ccc4ccc5cccc6ccc3c4c56)n1[B-]2(F)F ... 618

Give the value of emission maximum reported for the following: CN(C)c1ccc(C#Cc2ccc(C#N)cc2)cc1
468.01

Supply reported emission maximum belonging to this molecule: COC(=O)C(Cc1ccc2oc(-c3ccc(N(C)C)cc3)nc2c1)NC(=O)OC(C)(C)C (stereo not given)
384.5

---

assay: solvent given as SMILES; conditions: in CN(C)C=O
endpoint: emission maximum (nm)
Output spec: scalar in nm, unitless text.

Answered examples (8):
COC(=O)C(Cc1ccc2oc(-c3ccc(N(C)C)cc3)nc2c1)NC(=O)OC(C)(C)C (centres undefined) ... 400.5
Cc1cc(C)cc(NC(=O)c2sc(Br)nc2C)c1 ... 398.2
CN(C)c1ccc(C#Cc2ccc(C#N)cc2)cc1 ... 566
CCC1=C(C)C2=C(c3ccc(-c4c5ccccc5c(-c5ccccc5)c5ccccc45)cc3)c3c(C)c(CC)c(C)n3[B-](F)(F)[N+]2=C1C ... 537
C(=C\c1cccc2ccccc12)/c1ccc(-c2nnc(-c3ccc(-c4cc5ccccc5s4)cc3)o2)cc1 ... 447
Cc1ccc(-c2cc(-c3ccccc3)c(C#N)c(=S)[nH]2)cc1 ... 502
CCN(CC)c1ccc2cc(-c3cn4ccccc4n3)c(=O)oc2c1 ... 477
CN(C)c1ccc(/C=C/C=C/c2nc3ccccc3o2)cc1 ... 538

Return emission maximum for the following compound: CC1=CC(C)=[N+]2C1=Cc1c3ccccc3c(C#Cc3cccs3)n1[B-]2(F)F
639

Provide only the value of recorded emission maximum for CN(C)c1ccc(-c2ccc(-c3ccc(N(C)C)cc3)c3nc(-c4ccccc4)c(-c4ccccc4)nc23)cc1
648

---

experiment: solvent given as SMILES; conditions: in CCCCCCCCCCO
Entries annotated with measured emission maximum
Reply numerically in nm, unit not repeated.

Solved cases below.
C(=C\c1cccc2ccccc12)/c1ccc(-c2nnc(-c3ccc(-c4cc5ccccc5s4)cc3)o2)cc1 ... 437
COC(=O)c1ccc(-c2ccc(-c3nnc(-c4ccc(-c5nnc(-c6ccc(-c7ccc(C(=O)OC)cc7)s6)o5)cc4)o3)s2)cc1 ... 408
c1cc2ccc3ccc(-c4ccc(-c5nnc(-c6ccc(-c7nnc(-c8ccc(-c9ccc%10ccc%11cccc%12ccc9c%10c%11%12)s8)o7)cc6)o5)s4)c4ccc(c1)c2c34 ... 418
Cc1ccc(Nc2ccc(Nc3ccc(C)cc3)c3c2C(=O)c2ccccc2C3=O)cc1 ... 682

The record that follows has no emission maximum shown yet.
Answer with reported emission maximum of CCNc1ccc(NCC)c2c1C(=O)c1ccccc1C2=O
672

Taken from the Deep4Chem optical property database.
